- Test system: L1210 leukemia ip in BDF1 mice, survival T/C
- ASSAY_PROTOCOL: NCI In Vivo Anticancer Drug Screen. Data for tumor model L1210 Leukemia (intraperitoneal) in B6D2F1 (BDF1) mice
- SETTINGS: endpoint: mean survival time; dose: 100.0 mg/kg/injection; schedule: Q01DX009 (ip); vehicle: Klucel (hydroxypropylcellulose) (HPC); higher = longer survival
Toxic doses and inconclusive results are not listed. Square brackets hold non-standard residues; d marks the D form. Peptide text beside a SMILES is read from it. * marks the point of attachment. ξ: configuration not given here. ξE = NC(CCC(=O)O)C(=O)O; Cbz = O=C(OCc1ccccc1)*
Listing of entries alongside the reported T/C.

- COMPOUND: "C=CCN(CC=C)c1ccccc1"
  T/C: "93 % of control"
- COMPOUND: "c1cc[n+](CC[n+]2ccccc2)cc1"
  T/C: "100 % of control"
- COMPOUND: "C=CC(=O)NC1CCCCC1"
  T/C: "102 % of control"
- COMPOUND: "Cc1cccc(NC(=O)Nc2cccc(Cl)c2)c1C"
  T/C: "91 % of control"
- COMPOUND: "CCOC(=O)c1ccc(NC(=S)Nc2ccccc2)cc1N(CC)CC"
  T/C: "101 % of control"
- COMPOUND: "O=C(Nc1cccc(Cl)c1Cl)Oc1ccc(OCc2ccccc2)cc1"
  T/C: "87 % of control"
- COMPOUND: "O=C(c1ccccc1)C1Cc2ccccc2C1=O (configuration not stated)"
  T/C: "100 % of control"
- COMPOUND: "CCCCCCCCCCCCC(O)C(O)CCCCCCCC(=O)O (configuration not stated)"
  T/C: "94 % of control"
- COMPOUND: "[Cl][Ge]([c]1ccccc1)([c]1ccccc1)[c]1ccccc1"
  T/C: "104 % of control"
- COMPOUND: "COc1ccc(/C=C(\\C#N)c2ccc(OC)cc2)cc1"
  T/C: "96 % of control"
- COMPOUND: "CCCCCCCCCCCCCCCC(=O)OCC1OC(CO)(OC2OC(CO)C(O)C(O)C2O)C(O)C1O (configuration not stated)"
  T/C: "91 % of control"
- COMPOUND: "COC(=O)C1C=CCC2C(=O)C=C(C)C(=O)C12C (configuration not stated)"
  T/C: "94 % of control"
- COMPOUND: "C#CCCOC(=O)Nc1ccccc1"
  T/C: "96 % of control"
- COMPOUND: "COc1ccc(Br)cc1C1(O)C2C=CC1CC2 (configuration not stated)"
  T/C: "102 % of control"
- COMPOUND: "N#CC(c1ccccc1)c1ccc(F)cc1 (configuration not stated)"
  T/C: "104 % of control"
- COMPOUND: "CCOc1ccc(/C=C\\C(=O)O)cc1"
  T/C: "97 % of control"
- COMPOUND: "S=C1NCCCS1"
  T/C: "101 % of control"
- COMPOUND: "O=C(O)CCC(NC(=O)CNC(=O)OCc1ccccc1)C(=O)O (stereo not drawn) (Cbz-Gly-[ξE]-OH)"
  T/C: "97 % of control"
- COMPOUND: "CCCC[N+]12CC=C3COC(=O)C(C)(O)C(C)(O)C(C)C(=O)OC(CC1)C32 (configuration not stated)"
  T/C: "95 % of control"
- COMPOUND: "COc1ccc(S(=O)(=O)NC(=O)NCCC=C(C)C)cc1"
  T/C: "95 % of control"
- COMPOUND: "CCCCCC1CCC(O)CC1 (configuration not stated)"
  T/C: "95 % of control"
- COMPOUND: "Cn1nc(N)c2cc(C(N)=O)c(N)nc21"
  T/C: "88 % of control"
- COMPOUND: "CC(=O)C1C=NCCN=CC(C(C)=O)C(C)=NCCCN=C1C.[Ni] (configuration not stated)"
  T/C: "105 % of control"
- COMPOUND: "O=C(O)C1C2CC(C(Br)C2Br)C1C(=O)O (configuration not stated)"
  T/C: "95 % of control"
- COMPOUND: "CC(=O)Nc1ccc(NC(=O)NCCCl)cc1"
  T/C: "99 % of control"
- COMPOUND: "CNC(=S)NNc1ccccc1"
  T/C: "110 % of control"
- COMPOUND: "O=C(Nc1ccc([As](=O)(O)O)cc1)Nc1cccc(Cl)c1Cl"
  T/C: "100 % of control"
